Assay: in vivo
Settings: mouse, in vivo, po, LD50
Protocol: The toxicity of the products to be studied was investigated by the oral administration, using an esophageal tube, of each of the said products to male mice with a body weight of 18 to 22 g, divided into groups each containing 10 to 20 animals. The mortality was recorded over a 14-day period. The results obtained, which are expressed in the form of LD50 in mg/kg, are collated in Table II below.
Assay readout: LD50 at 336 h (mg/kg)
Lab book: enter the figure in mg/kg, no units written.

Data request: Endpoint output: LD50 at 336 h of `CCON=C(C)c1scnc1C` . Value?
Data returned: 1000

* * *

// values below are reported selectivity ratio
assay: in vivo; type: in vivo; conditions: mouse, in vivo, po, Protection index MCE
No unit in the answer, only the number.

Below, 4 molecules whose answers are already recorded.
| Molecule | selectivity ratio |
| --- | --- |
| CO/N=C(\C)c1scnc1C [Ex. 3, 5-(1-methoxyiminoethyl)-4-methylthiazole] | 3 |
| CCCCON=C(C)c1scnc1C.Cl [Ex. 9, hydrochloride] | 4 |
| CC(=NOCc1ccccc1)c1scnc1C [Ex. 12] | 8.6 |
| CCON=C(C)c1scnc1C [Ex. 5] | 6.3 |

Shift focus to the following entry.
Data request: Endpoint output: selectivity ratio of CON=C(C)c1scnc1C [Ex. 1, 5-(1-methoxyiminoethyl)-4-methylthiazole] . Value?
Data returned: 4.1

* * *

Assay: in vivo
Assay type: in vivo
Settings: mouse, in vivo, po, Protection index PTZ
Description: The neurotoxic properties were assessed on male mice by the so-called "Rota-rod" test carried out thirty minutes after the oral administration of the substances to be studied. The animals (divided into groups each containing ten male mice per dose and per product) are installed on the rod and their fall is observed over the next two minutes. […] *dose determined per os on groups each containing ten male mice.
Binary label based on selectivity ratio with cut-off 6: below gives Satisfied, not below gives Not satisfied.

Data request: State whether 6 exceeds selectivity ratio recorded for `CCON=C(C)c1scnc1C` .
Data returned: Not satisfied

Data request: State whether 6 exceeds selectivity ratio recorded for `CO/N=C(\C)c1scnc1C` .
Data returned: Satisfied

Data request: State whether 6 exceeds selectivity ratio recorded for `CC(=NOCc1ccccc1)c1scnc1C` .
Data returned: Not satisfied

Data request: State whether 6 exceeds selectivity ratio recorded for CCCCON=C(C)c1scnc1C.Cl [Ex. 9, hydrochloride] .
Data returned: Satisfied

Data request: State whether 6 exceeds selectivity ratio recorded for `CON=C(C)c1scnc1C` .
Data returned: Satisfied

* * *

test: in vivo; type: in vivo; conditions: mouse, in vivo, po; Rota-rod, per os, male mice, 30 min after administration; read-out: TD50
Assay readout: TD50 at 0.5 h (mg/kg)
Lab book: enter the figure in mg/kg, no units written.

Below, 3 compounds whose answers are already recorded.
| Structure smiles string | Obs value |
| --- | --- |
| CC(=NOCc1ccccc1F)c1scnc1C | 750 |
| CC(=NOCc1cccc(C(F)(F)F)c1)c1scnc1C | 1500 |
| CC(=NOCc1cccc(Cl)c1)c1scnc1C | 750 |

Data request: Endpoint output: TD50 at 0.5 h of `CC(=NOCc1ccccc1)c1scnc1C` . Value?
Data returned: 1000

* * *

test: in vivo; type: in vivo; conditions: mouse, in vivo, po, TD50 per os/ED50 per os, PTZ; read-out: Protection index PTZ
Assay readout: selectivity ratio
No unit in the answer, only the number.

| Compound | selectivity ratio |
| --- | --- |
| CN1C(=O)OC(C)(C)C1=O [TRIM, trimethadione, reference compound] | 4 |
| CCCC(CCC)C(=O)O [VALP, sodium valproate, reference compound] | 2.7 |
| CC(=NOCc1ccccc1)c1scnc1C | 21.7 |
| CC(=NOCc1ccccc1F)c1scnc1C | 7.1 |
| CC(=NOCc1cccc(C(F)(F)F)c1)c1scnc1C | 15.6 |

Shift focus to the following entry.
Data request: Endpoint output: selectivity ratio of `CC(=NOCc1cccc(Cl)c1)c1scnc1C` . Value?
Data returned: 5.4

* * *

test: in vivo; conditions: mouse, in vivo, po, LD50, Table II, male mice, 14 days
Assay readout: LD50 at 336 h (mg/kg)
Lab book: enter the figure in mg/kg, no units written.

Below, 3 compounds whose answers are already recorded.
| Compound | Value unit | LD50 at 336 h |
| --- | --- | --- |
| CC(=NO)c1scnc1C [Ex. 28, 5-(1-hydroxyiminoethyl)-4-methylthiazole] | mg/kg | 1000 |
| CCCCON=C(C)c1scnc1C | mg/kg | 750 |
| CC(=NOCCN1CCCC1)c1scnc1C | mg/kg | 360 |

Shift focus to the following entry.
Data request: Endpoint output: LD50 at 336 h of `CO/N=C(\C)c1scnc1C` . Value?
Data returned: 570

* * *

// values below are reported LD50 at 336 h
assay: in vivo; settings: mouse, in vivo, po, LD50, Table IV; per os, male mice
Lab book: enter the figure in mg/kg, no units written.

Below, 2 molecules whose answers are already recorded.
| Molecule | LD50 at 336 h, mg/kg |
| --- | --- |
| CO/N=C(\C)c1scnc1C [Ex. 3, 5-(1-methoxyiminoethyl)-4-methylthiazole] | 570 |
| CON=C(C)c1scnc1C.Cl [Ex. 2] | 1000 |

Shift focus to the following entry.
Data request: Endpoint output: LD50 at 336 h of CON=C(C)c1scnc1C [Ex. 1, 5-(1-methoxyiminoethyl)-4-methylthiazole] . Value?
Data returned: 740

* * *

test: in vivo; details: mouse, in vivo, po, Therapeutic index MCE, LD50 per os/ED50 per os, MCE
// values below are reported selectivity ratio
No unit in the answer, only the number.

Below, 4 compounds whose answers are already recorded.
| Compound | Assay readout | Obs value |
| --- | --- | --- |
| CON=C(C)c1scnc1C [Ex. 1, 5-(1-methoxyiminoethyl)-4-methylthiazole] | selectivity ratio | 8.8 |
| CN1C(=O)OC(C)(C)C1=O [TRIM, trimethadione, reference compound] | selectivity ratio | 4.4 |
| CO/N=C(\C)c1scnc1C [Ex. 3, 5-(1-methoxyiminoethyl)-4-methylthiazole] | selectivity ratio | 5.9 |
| CCON=C(C)c1scnc1C [Ex. 5] | selectivity ratio | 8.3 |

Data request: Endpoint output: selectivity ratio of CCCC(CCC)C(=O)O [VALP, sodium valproate, reference compound] . Value?
Data returned: 4

* * *

assay: in vivo; conditions: mouse, in vivo, po, Therapeutic index PTZ, LD50 per os/ED50 per os, PTZ
Please use true (1) whenever selectivity ratio is not below 10, and false (0) whenever it is.

Data request: Is reported selectivity ratio greater than or equal to 10 here: `CC(=NOCc1cccc(C(F)(F)F)c1)c1scnc1C`
Data returned: true (1)

Data request: Is reported selectivity ratio greater than or equal to 10 here: `CON=C(C)c1scnc1C`
Data returned: true (1)

Data request: Is reported selectivity ratio greater than or equal to 10 here: `CO/N=C(\C)c1scnc1C`
Data returned: false (0)

Data request: Is reported selectivity ratio greater than or equal to 10 here: CCCC(CCC)C(=O)O [VALP, sodium valproate, reference compound]
Data returned: false (0)

Data request: Is reported selectivity ratio greater than or equal to 10 here: CN1C(=O)OC(C)(C)C1=O [TRIM, trimethadione, reference compound]
Data returned: false (0)

* * *

test: in vivo; conditions: mouse, in vivo, po, LD50, Table II, male mice, 14 days
// values below are reported LD50 at 336 h

Below, 3 molecules whose answers are already recorded.
| Structure smiles string | LD50 at 336 h |
| --- | --- |
| COC(=O)CON=C(C)c1scnc1C | > 1000 mg/kg |
| CC(=NOCc1cccc(Cl)c1)c1scnc1C | > 1000 mg/kg |
| CON=C(C)c1sc(Br)nc1C | > 1000 mg/kg |

Data request: Endpoint output: LD50 at 336 h of `CCOc1ccccc1CON=C(C)c1scnc1C` . Value?
Data returned: > 1000 mg/kg

Data request: Endpoint output: LD50 at 336 h of `CC(=NO)c1sc(Cl)nc1C` . Value?
Data returned: > 1000 mg/kg

* * *

assay: in vivo; conditions: mouse, in vivo, po, LD50, Table IV; per os, male mice
// values below are reported LD50 at 336 h

Below, 2 compounds whose answers are already recorded.
| Structure smiles string | Obs value |
| --- | --- |
| CC(=NOCc1cccc(C(F)(F)F)c1)c1scnc1C | > 1000 mg/kg |
| CCCCON=C(C)c1scnc1C.Cl | > 1000 mg/kg |

Shift focus to the following entry.
Data request: Endpoint output: LD50 at 336 h of `CC(=NOCc1cccc(Cl)c1)c1scnc1C` . Value?
Data returned: > 1000 mg/kg

* * *

// values below are reported selectivity ratio
assay: in vivo; conditions: mouse, in vivo, po, Therapeutic index MCE, LD50 per os/ED50 per os, MCE

Below, 2 molecules whose answers are already recorded.
| Molecule | selectivity ratio |
| --- | --- |
| CCCCON=C(C)c1scnc1C.Cl [Ex. 9, hydrochloride] | > 6.7 |
| CC(=NOCc1ccccc1)c1scnc1C | > 12.8 |

Data request: Endpoint output: selectivity ratio of `CC(=NOCc1ccccc1F)c1scnc1C` . Value?
Data returned: > 5.4
